# test-method-notes: Primary imaging screen for DUSP6 inhibitors that restore phospho-Erk in transfected HeLa cells, chemical complementation (AID 609)
# conditions: HeLa MKP-3 transfected, phospho-Erk imaging KS statistic; measured here: cell density z-score; at 10 µM; cells stimulated with TPA for 15 min
Definition: the class of an entry is the range in Low = under -0.7, Medium = from -0.7 up to -0.002, High = -0.002 and over that contains its z-score.

The examples below pair each entry with its known result.
compound	qualitative-label
CC(=O)OCC(=O)[C@@]1(O)CC[C@H]2[C@@H]3CCC4=CC(=O)C=C[C@]4(C)[C@H]3[C@@H](O)C[C@@]21C	Medium
O=c1c(O)c(-c2ccc(O)cc2O)oc2cc(O)cc(O)c12	Medium
CCc1nc(N)nc(N)c1-c1ccc(Cl)cc1	Low

Please look at the following compound next.
Query: Hi there! Could you help me figure out the category for COC(=O)C1C(=O)NCC1c1ccccc1 (centres undefined) please?
Reply: High
